molecular target: Human autotaxin enzyme (Homo sapiens, UniProt Q13822)
Readout Label: IC50

Ask: Field: IC50 (Human autotaxin enzyme (Homo sapiens, UniProt Q13822)). Entry: CCCCC1CN(Cc2ccc(C#N)cc2)C(=O)c2cc(-c3ccc(Cl)cc3C#N)nn21 (stereo not shown)
Reply: 10 to 100 nM

Ask: Also CCCCC1CN(CC(=O)N2CCC[C@@H]2C)C(=O)c2cc(-c3ccc(Cl)cc3)nn21 (stereo partly shown) ?
Reply: 10 to 100 nM

Ask: Also CCCCC1CN(CC(=O)NCC(=O)NC)C(=O)c2cc(-c3ccc(Cl)cc3)nn21 (stereo not shown) ?
Reply: 100 to 1000 nM

Ask: Thanks! And CCCCC1CN(CC(=O)N2CCC[C@H]2C)C(=O)c2cc(-c3ccc(Cl)cc3)nn21 (stereo partly shown) ?
Reply: 100 to 1000 nM

Ask: Request: C[C@H]1CN(CC(=O)N2CCOCC2)C(=O)c2cc(-c3ccc(Cl)cc3)nn21
Reply: ≥ 1000 nM

Ask: Lookup CCCCC1CN(CC(=O)N2CCOC(C#N)C2)C(=O)c2cc(-c3ccc(Cl)cc3)nn21 (stereo not shown)
Reply: 10 to 100 nM

Ask: Proceed to CC(=O)NC1=C(c2cc3n(n2)[C@@H](C)CN(Cc2ccc(C#N)cc2)C3=O)CCC(C(F)(F)F)C1 (stereo partly shown)
Reply: 10 to 100 nM
